TARGET OR SYSTEM: T1, human TREM2 (human, UniProt Q9NZC2 19-174, limits assumed)
T1 construct: also called triggering receptor expressed on myeloid cells 2
T1 sequence: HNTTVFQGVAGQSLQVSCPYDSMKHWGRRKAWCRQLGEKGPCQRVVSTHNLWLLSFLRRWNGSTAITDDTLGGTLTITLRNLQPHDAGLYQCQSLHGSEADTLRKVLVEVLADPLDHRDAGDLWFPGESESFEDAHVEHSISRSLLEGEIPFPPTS
PROCEDURE SUMMARY: 1st screen (110 nM or 10 nM)
The threshold is 2 fold. Values of Binding Signal (fold over 6E7 Parental antibody) beneath it are tagged label 1; values meeting or exceeding it are tagged label 0.

The following binders have reported results that may help.
[[record]]
binder = "V91 (antibody, V domains shown) VH: EVQLVQSGAEVKKPGESLKISCKGSGYSFTSYWIAWVRQMPGKGLEWMGIIYPDDSDTRYSPSFQGQVTISADKSISTAYLQWSSLKASDTAMYFCARQRTFYYDSSDYFDYWGQGTLVTVSS VL: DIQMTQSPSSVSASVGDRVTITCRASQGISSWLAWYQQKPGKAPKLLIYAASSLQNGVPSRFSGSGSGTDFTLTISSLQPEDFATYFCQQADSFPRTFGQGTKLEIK"
assigned_category = "label 1"

[[record]]
binder = "V62 (antibody, V domains shown) VH: EVQLVQSGAEVKKPGESLKISCKGSGYSFGSYWIAWVRQMPGKGLEWMGIIYPGDSDTRYAPSFQGQVTISADKSISTAYLQWSSLKASDTAMYFCARQRTFYYDSSGYFDYWGQGTLVTVSS VL: DIQMTQSPSSVSASVGDRVTITCRASQGISSWLAWYQQKPGKAPKLLIYAASSLQRGVPSRFSGSGSGTDFTLTISSLQPEDFATYFCGQADSFPRTFGQGTKLEIK"
assigned_category = "label 0"

[[record]]
binder = "V72 (antibody, V domains shown) VH: EVQLVQSGAEVKKPGESLKISCKGSGYSFTSYWIGWVRQMPGKGLEWMGIIYPGDSDTRYSPSFQGQVTISADKSISTAYLQWSSLKASDTAMYFCARGRTFYYDSSDYFDYWGQGTLVTVSS VL: DIQMTQSPSSVSASVGDRVTITCRASQGISSWLAWYQQKPGKAPKLLIYAASSLVNGVPSRFSGSGSGTDFTLTISSLQPEDFATYFCQQADSYPRTFGQGTKLEIK"
assigned_category = "label 0"


Dear colleague, could you confirm whether Binding Signal (fold over 6E7 Parental antibody) of V49 (antibody, V domains shown) VH: EVQLVQSGAEVKKPGESLKISCKGSGYSFNSYWIAWVRQMPGKGLEWMGTIYPGDSDTRLSPSFQGQVTISADKSISTAYLQWSSLKASDTAMYFCARSRTFYYDSSDYFDYWGQGTLVTVSS VL: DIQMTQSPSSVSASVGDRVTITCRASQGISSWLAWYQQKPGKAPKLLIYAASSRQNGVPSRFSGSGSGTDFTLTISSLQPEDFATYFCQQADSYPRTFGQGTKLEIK falls below 2 fold? Thanks.
label 0

Dear colleague, could you confirm whether Binding Signal (fold over 6E7 Parental antibody) of V92 (antibody, V domains shown) VH: EVQLVQSGAEVKKPGESLKISCKGSGYSFTSYWIAWVRQMPGKGLEWMGIIYPGDSDTRYSPSFQGQVTISADKSISTAYLQWSSLKASDTAMYFCARQRTFHYDSSDYFDYWGQGTLVTVSS VL: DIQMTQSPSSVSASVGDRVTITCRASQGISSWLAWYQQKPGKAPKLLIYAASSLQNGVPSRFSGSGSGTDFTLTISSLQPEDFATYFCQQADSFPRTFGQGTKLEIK falls below 2 fold? Thanks.
label 1

Origin of values: patent US20250282866A1
